Target: T1, IL-18 receptor (IL-18Rα and IL-18Rβ) (UniProt Q13478 19-541; O95256 20-599, limits assumed)
T1 sequence (looked up) 1: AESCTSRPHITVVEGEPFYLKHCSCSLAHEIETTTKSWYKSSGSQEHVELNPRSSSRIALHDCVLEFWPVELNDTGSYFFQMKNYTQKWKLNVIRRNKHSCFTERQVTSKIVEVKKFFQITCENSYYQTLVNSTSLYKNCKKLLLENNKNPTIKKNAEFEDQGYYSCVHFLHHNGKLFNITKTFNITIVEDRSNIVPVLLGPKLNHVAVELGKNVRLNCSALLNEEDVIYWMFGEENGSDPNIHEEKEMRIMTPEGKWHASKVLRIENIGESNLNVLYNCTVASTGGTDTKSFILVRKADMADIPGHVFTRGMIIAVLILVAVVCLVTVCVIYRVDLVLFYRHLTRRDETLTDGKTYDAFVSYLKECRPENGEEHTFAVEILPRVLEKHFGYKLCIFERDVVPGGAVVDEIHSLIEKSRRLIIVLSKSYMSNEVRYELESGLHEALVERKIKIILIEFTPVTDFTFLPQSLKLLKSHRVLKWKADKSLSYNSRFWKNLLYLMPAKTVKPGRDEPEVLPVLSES
T1 sequence (looked up) 2: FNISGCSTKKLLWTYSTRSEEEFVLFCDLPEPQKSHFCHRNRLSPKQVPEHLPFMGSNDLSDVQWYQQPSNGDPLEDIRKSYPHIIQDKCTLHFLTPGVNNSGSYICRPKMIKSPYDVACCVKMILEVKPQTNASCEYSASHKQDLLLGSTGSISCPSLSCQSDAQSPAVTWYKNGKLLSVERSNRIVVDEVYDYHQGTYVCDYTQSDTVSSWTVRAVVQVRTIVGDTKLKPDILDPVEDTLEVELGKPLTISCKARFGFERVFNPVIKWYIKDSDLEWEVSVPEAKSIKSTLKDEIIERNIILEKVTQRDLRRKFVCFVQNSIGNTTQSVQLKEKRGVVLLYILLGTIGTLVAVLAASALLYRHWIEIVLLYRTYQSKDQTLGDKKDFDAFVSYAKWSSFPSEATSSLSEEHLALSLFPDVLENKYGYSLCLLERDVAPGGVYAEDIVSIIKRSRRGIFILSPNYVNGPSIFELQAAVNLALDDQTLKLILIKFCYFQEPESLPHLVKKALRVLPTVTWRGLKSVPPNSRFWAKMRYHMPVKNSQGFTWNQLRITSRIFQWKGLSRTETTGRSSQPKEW
Test: cell-based or functional assay
Recorded EC50 (pM) - BP, HEK-blue re-screening values for a group of binders are listed next.
Kindly answer with a numeric value in pM, unit omitted.

Reference set (6 entries):
binder="IL-18 variant G3P, E6H, N91L (ligand) YFPKLHSKLSVIRNLNDQVLFIDQGNRPLFEDMTDSDMRDNAPRTIFIISMYKDSQPRGMAVTISVKSEKISTLSSENKIISFKEMNPPDLIKDTKSDIIFFQRSVPGHDNKMQFESSSYEGYFLASEKERDLFKLILKKEDELGDRSIMFTVQNED" unit_abbrev=pM recorded_measurement=3.21
binder="IL-18 variant G3L, E6S, D54T, T63S, N91Y, R104Q (ligand) YFLKLSSKLSVIRNLNDQVLFIDQGNRPLFEDMTDSDMRDNAPRTIFIISMYKTSQPRGMAVSISVKSEKISTLSSENKIISFKEMNPPDYIKDTKSDIIFFQQSVPGHDNKMQFESSSYEGYFLASEKERDLFKLILKKEDELGDRSIMFTVQNED" unit_abbrev=pM recorded_measurement=0.02
binder="IL-18 variant G3Q, E6Q, K53T, D54W, S55F, N91Y (ligand) YFQKLQSKLSVIRNLNDQVLFIDQGNRPLFEDMTDSDMRDNAPRTIFIISMYTWFQPRGMAVTISVKSEKISTLSSENKIISFKEMNPPDYIKDTKSDIIFFQRSVPGHDNKMQFESSSYEGYFLASEKERDLFKLILKKEDELGDRSIMFTVQNED" unit_abbrev=pM recorded_measurement=2.36
binder="IL-18 variant G3P, E6H, D54A, S55P, Q56K, T63S, N91M (ligand) YFPKLHSKLSVIRNLNDQVLFIDQGNRPLFEDMTDSDMRDNAPRTIFIISMYKAPKPRGMAVSISVKSEKISTLSSENKIISFKEMNPPDMIKDTKSDIIFFQRSVPGHDNKMQFESSSYEGYFLASEKERDLFKLILKKEDELGDRSIMFTVQNED" unit_abbrev=pM recorded_measurement=5.4
binder="IL-18 variant G3Q, E6H, K53T, D54S, S55Y, N91Y, R104K (ligand) YFQKLHSKLSVIRNLNDQVLFIDQGNRPLFEDMTDSDMRDNAPRTIFIISMYTSYQPRGMAVTISVKSEKISTLSSENKIISFKEMNPPDYIKDTKSDIIFFQKSVPGHDNKMQFESSSYEGYFLASEKERDLFKLILKKEDELGDRSIMFTVQNED" unit_abbrev=pM recorded_measurement=2.63
binder="IL-18 variant G3P, E6K, D54R, S55P, T63A, N91V (ligand) YFPKLKSKLSVIRNLNDQVLFIDQGNRPLFEDMTDSDMRDNAPRTIFIISMYKRPQPRGMAVAISVKSEKISTLSSENKIISFKEMNPPDVIKDTKSDIIFFQRSVPGHDNKMQFESSSYEGYFLASEKERDLFKLILKKEDELGDRSIMFTVQNED" unit_abbrev=pM recorded_measurement=9.07

[ask] Provide measured EC50 (pM) - BP, HEK-blue re-screening value, entry: IL-18 variant G3P, E6K, D54Y, S55P, Q56H, T63S, N91S, R104Q (ligand) YFPKLKSKLSVIRNLNDQVLFIDQGNRPLFEDMTDSDMRDNAPRTIFIISMYKYPHPRGMAVSISVKSEKISTLSSENKIISFKEMNPPDSIKDTKSDIIFFQQSVPGHDNKMQFESSSYEGYFLASEKERDLFKLILKKEDELGDRSIMFTVQNED
[reply] 1.58

[ask] Quick one: give measured EC50 (pM) - BP, HEK-blue re-screening for IL-18 variant G3P, E6V, K53A, D54W, S55P, T63S, N91L, R104K (ligand) YFPKLVSKLSVIRNLNDQVLFIDQGNRPLFEDMTDSDMRDNAPRTIFIISMYAWPQPRGMAVSISVKSEKISTLSSENKIISFKEMNPPDLIKDTKSDIIFFQKSVPGHDNKMQFESSSYEGYFLASEKERDLFKLILKKEDELGDRSIMFTVQNED
[reply] 8.21

The measurements presented in this section are drawn from patent US20240182536A1.
